Recorded AUC(0-t), one value per entry.
assay: AUC (0 to t) in Sprague-Dawley rat at 5 mg/kg, iv by LC-MS/MS analysis; assay type: ADME, organism-based; design: dose 5 mg/kg, route intravenous; conditions: plasma
Give the quantity in ng·h/mL, number only.

Known results for compounds:
Structure Smiles: CC(=O)O[C@@]12CO[C@@H]1C[C@H](O)[C@@]1(C)C(=O)[C@H](O)C3=C(C)[C@@H](OC(=O)[C@H](O)[C@@H](NC(=O)OC(C)(C)C(F)F)c4ccc(F)cc4)C[C@@](O)([C@@H](OC(=O)c4ccccc4)[C@H]21)C3(C)C
AUC(0-t) [ng·h/mL]: 3150
//
Structure Smiles: CC(=O)O[C@@]12CO[C@@H]1C[C@H](O)[C@@]1(C)C(=O)[C@H](O)C3=C(C)[C@@H](OC(=O)[C@H](O)[C@@H](NC(=O)OC(C)(C)C(F)(F)F)c4ccccc4)C[C@@](O)([C@@H](OC(=O)c4cccc(F)c4)[C@H]21)C3(C)C
AUC(0-t) [ng·h/mL]: 3870
//
Structure Smiles: CC(=O)O[C@@]12CO[C@@H]1C[C@H](O)[C@@]1(C)C(=O)[C@H](O)C3=C(C)[C@@H](OC(=O)[C@H](O)[C@@H](NC(=O)OC(C)(C)CF)c4ccccc4)C[C@@](O)([C@@H](OC(=O)c4cccc(F)c4)[C@H]21)C3(C)C
AUC(0-t) [ng·h/mL]: 2190
//
Structure Smiles: CC(=O)O[C@@]12CO[C@@H]1C[C@H](O)[C@@]1(C)C(=O)[C@H](O)C3=C(C)[C@@H](OC(=O)[C@H](O)[C@@H](NC(=O)OC(C)(C)CF)c4ccccc4)C[C@@](O)([C@@H](OC(=O)c4ccccc4)[C@H]21)C3(C)C
AUC(0-t) [ng·h/mL]: 914
//
Structure Smiles: CC(=O)O[C@@]12CO[C@@H]1C[C@H](O)[C@@]1(C)C(=O)[C@H](O)C3=C(C)[C@@H](OC(=O)[C@H](O)[C@@H](NC(=O)OC(C)(C)C(F)(F)F)c4ccccc4)C[C@@](O)([C@@H](OC(=O)c4ccccc4)[C@H]21)C3(C)C
AUC(0-t) [ng·h/mL]: 3860

Value lookup for AUC(0-t); key = CC(=O)O[C@@]12CO[C@@H]1C[C@H](O)[C@@]1(C)C(=O)[C@H](O)C3=C(C)[C@@H](OC(=O)[C@H](O)[C@@H](NC(=O)OC(C)(C)CF)c4ccc(F)cc4)C[C@@](O)([C@@H](OC(=O)c4ccccc4)[C@H]21)C3(C)C
1640

Value lookup for AUC(0-t); key = CC(=O)O[C@@]12CO[C@@H]1C[C@H](O)[C@@]1(C)C(=O)[C@H](O)C3=C(C)[C@@H](OC(=O)[C@H](O)[C@@H](NC(=O)OC(C)(C)C)c4ccccc4)C[C@@](O)([C@@H](OC(=O)c4ccccc4)[C@H]21)C3(C)C.O.O.O
646

Value lookup for AUC(0-t); key = CC(=O)O[C@@]12CO[C@@H]1C[C@H](O)[C@@]1(C)C(=O)[C@H](O)C3=C(C)[C@@H](OC(=O)[C@H](O)[C@@H](NC(=O)OC(C)(C)C(F)F)c4ccccc4)C[C@@](O)([C@@H](OC(=O)c4ccccc4)[C@H]21)C3(C)C
2860

Value lookup for AUC(0-t); key = CC(=O)O[C@@]12CO[C@@H]1C[C@H](O)[C@@]1(C)C(=O)[C@H](O)C3=C(C)[C@@H](OC(=O)[C@H](O)[C@@H](NC(=O)OC(C)(C)C(F)F)c4ccccc4)C[C@@](O)([C@@H](OC(=O)c4cccc(F)c4)[C@H]21)C3(C)C
1930

Value lookup for AUC(0-t); key = CC(=O)O[C@@]12CO[C@@H]1C[C@H](O)[C@@]1(C)C(=O)[C@H](O)C3=C(C)[C@@H](OC(=O)[C@H](O)[C@@H](NC(=O)OC(C)(C)C(F)(F)F)c4ccc(F)cc4)C[C@@](O)([C@@H](OC(=O)c4ccccc4)[C@H]21)C3(C)C
3870
